Hey, just so you know, these numbers are from ChEMBL document CHEMBL3611967.

Test system: MCF7
ASSAY SUMMARY: Anticancer against human MCF7 cells assessed as tumor growth inhibition after 72 hrs by SRB assay
Type: functional, cell-based
TEST PARAMETERS: MCF7, 72 h
Entries and their IC50
MEASURE NAME: IC50 (µM)

STRUCTURE SMILES STRING: Cc1cc(NS(=O)(=O)c2ccc3ncc(C(N)=O)c(Nc4ccc(Br)cc4)c3c2)no1
ASSAY VALUE: 33.7

STRUCTURE SMILES STRING: Cc1ccc(Nc2c(C(N)=O)cnc3ccc(-c4csc(N)n4)cc23)cc1
ASSAY VALUE: 62.2

STRUCTURE SMILES STRING: NC(=O)c1cnc2ccc(-c3csc(N)n3)cc2c1Nc1ccc(Br)cc1
ASSAY VALUE: 334

STRUCTURE SMILES STRING: Cc1ccc(Nc2c(C(N)=O)cnc3ccc(S(=O)(=O)Nc4cc(C)on4)cc23)cc1
ASSAY VALUE: 120

====

ASSAYED SYSTEM: Epidermal growth factor receptor (Homo sapiens, UniProt P00533)
Sequence (P00533 whole entry): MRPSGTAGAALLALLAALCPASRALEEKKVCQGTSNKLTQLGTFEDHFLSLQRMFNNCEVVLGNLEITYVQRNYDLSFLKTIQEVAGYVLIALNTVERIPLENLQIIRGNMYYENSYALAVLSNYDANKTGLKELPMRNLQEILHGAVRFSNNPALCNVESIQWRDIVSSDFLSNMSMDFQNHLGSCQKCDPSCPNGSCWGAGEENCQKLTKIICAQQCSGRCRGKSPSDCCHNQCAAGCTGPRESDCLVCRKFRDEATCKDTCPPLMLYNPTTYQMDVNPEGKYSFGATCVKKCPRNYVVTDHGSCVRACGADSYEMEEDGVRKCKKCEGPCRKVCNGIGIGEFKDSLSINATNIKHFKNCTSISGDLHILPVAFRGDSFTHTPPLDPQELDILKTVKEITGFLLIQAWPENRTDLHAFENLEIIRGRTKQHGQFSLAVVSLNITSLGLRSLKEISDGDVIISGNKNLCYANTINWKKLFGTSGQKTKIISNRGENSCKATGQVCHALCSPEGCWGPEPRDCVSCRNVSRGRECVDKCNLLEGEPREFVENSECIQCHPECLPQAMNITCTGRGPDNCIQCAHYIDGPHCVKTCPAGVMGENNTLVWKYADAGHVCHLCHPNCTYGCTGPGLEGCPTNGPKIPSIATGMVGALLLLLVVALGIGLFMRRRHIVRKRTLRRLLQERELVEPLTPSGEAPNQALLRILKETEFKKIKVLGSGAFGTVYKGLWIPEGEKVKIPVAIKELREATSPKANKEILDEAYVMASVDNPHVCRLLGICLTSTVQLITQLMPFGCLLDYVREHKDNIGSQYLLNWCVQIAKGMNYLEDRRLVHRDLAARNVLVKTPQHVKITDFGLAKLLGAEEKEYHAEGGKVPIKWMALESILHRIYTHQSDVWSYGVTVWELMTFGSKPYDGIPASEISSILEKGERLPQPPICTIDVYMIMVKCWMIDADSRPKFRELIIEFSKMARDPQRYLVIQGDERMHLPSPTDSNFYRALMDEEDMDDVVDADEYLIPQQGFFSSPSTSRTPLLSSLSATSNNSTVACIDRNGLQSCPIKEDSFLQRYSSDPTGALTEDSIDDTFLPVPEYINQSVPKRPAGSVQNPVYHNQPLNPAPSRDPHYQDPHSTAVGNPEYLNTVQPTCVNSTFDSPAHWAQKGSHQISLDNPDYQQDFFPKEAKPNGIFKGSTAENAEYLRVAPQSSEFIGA
ASSAY SUMMARY: Inhibition of epidermal growth factor receptor kinase (unknown origin) using [33P]-ATP after 20 to 30 mins by radiometric assay
pIC50: −log10 of the molar value.

STRUCTURE SMILES STRING: NC(=O)c1cnc2ccc(C(=O)/C=C/c3ccc(Cl)cc3)cc2c1Nc1ccc(Br)cc1
ASSAYED SYSTEM: Epidermal growth factor receptor (Homo sapiens, UniProt P00533)
pIC50: 5.32

====

Listed below: IC50 values for each entry.
System: MCF7
ASSAY SUMMARY: Anticancer against human MCF7 cells assessed as tumor growth inhibition after 72 hrs by SRB assay
Format: functional, cell-based
TEST PARAMETERS: MCF7, 72 h
MEASURE NAME: IC50 (µM)

STRUCTURE SMILES STRING: Cc1ccc(Nc2c(C(N)=O)cnc3ccc(-c4csc(NC(=S)Nc5ccccc5)n4)cc23)cc1
ASSAYED SYSTEM: MCF7
MEASURE UNIT: µM
ASSAY VALUE: 386

STRUCTURE SMILES STRING: NC(=O)c1cnc2ccc(-c3csc(N)n3)cc2c1Nc1ccc(Cl)cc1
ASSAYED SYSTEM: MCF7
MEASURE UNIT: µM
ASSAY VALUE: 315

STRUCTURE SMILES STRING: NC(=O)c1cnc2ccc(C(=O)/C=C/c3ccc(Cl)cc3)cc2c1Nc1ccc(Br)cc1
ASSAYED SYSTEM: MCF7
MEASURE UNIT: µM
ASSAY VALUE: 328

STRUCTURE SMILES STRING: CN(C)c1ccc(/C=C/C(=O)c2ccc3ncc(C(N)=O)c(Nc4ccc(Cl)cc4)c3c2)cc1
ASSAYED SYSTEM: MCF7
MEASURE UNIT: µM
ASSAY VALUE: 3.46

STRUCTURE SMILES STRING: Cc1cc(NS(=O)(=O)c2ccc(N/C=C(/C#N)C(=O)Nc3ccc(Cl)cc3)cc2)no1
ASSAYED SYSTEM: MCF7
MEASURE UNIT: µM
ASSAY VALUE: 28.4
